Biological target: Serine/threonine-protein kinase pim-2 (Homo sapiens)
Sequence (Q9P1W9 whole entry, looked up): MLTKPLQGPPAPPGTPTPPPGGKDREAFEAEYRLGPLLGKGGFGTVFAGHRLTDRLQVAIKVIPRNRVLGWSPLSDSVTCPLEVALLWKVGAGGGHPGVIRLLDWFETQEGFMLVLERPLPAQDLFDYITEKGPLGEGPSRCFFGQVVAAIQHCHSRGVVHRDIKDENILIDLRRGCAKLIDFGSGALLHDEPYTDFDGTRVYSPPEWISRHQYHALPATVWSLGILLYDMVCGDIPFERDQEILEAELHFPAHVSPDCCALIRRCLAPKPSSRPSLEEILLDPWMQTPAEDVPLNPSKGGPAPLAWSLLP
Reported ΔTm values follow for various molecules
measured-attribute: ΔTm (°C)

| molecule | value-reported |
| --- | --- |
| Cc1[nH]c(/C=C2\C(=O)Nc3ccc(S(=O)(=O)N(C)c4cccc(Cl)c4)cc32)c(C)c1C(=O)N1CCN(C)CC1 | 1 |
| CN(C)C[C@@H]1CCn2cc(c3ccccc32)C2=C(C(=O)NC2=O)c2cn(c3ccccc23)CCO1 [RUBOXISTAURIN] | 2.1 |
| CC(C)(C)c1nc2c3ccc(F)cc3c3c(=O)[nH]ccc3c2[nH]1 | 5.1 |
| O=Nc1c(-c2c(O)[nH]c3ccccc23)[nH]c2ccccc12 | 0 |
| Cn1cc(C2=C(c3cn(CCCSC(=N)N)c4ccccc34)C(=O)NC2=O)c2ccccc21 | 5.6 |
| CCN1/C(=C/C(C)=O)Sc2ccc(OC)cc21 | 3.1 |
| O=C(O)/C=C/c1cc(CO)ccc1CO | 1.6 |
| COC(=O)[C@]1(O)C[C@@H]2O[C@@]1(C)n1c3ccccc3c3c4c(c5c6ccccc6n2c5c31)C(=O)NC4 (single isomer, unassigned) | 3.8 |
| O=C1Nc2ccccc2/C1=C\c1ccc[nH]1 | 0.8 |
| COc1nccc(-c2c(-c3ccc(F)cc3)ncn2[C@H]2CC[C@H](O)CC2)n1 | 0.5 |
| O=C1NC(=O)c2c1c1c3ccccc3[nH]c1n1cncc21 [ISOGRANULATIMIDE] | 8 |
| C[C@@H](N)[C@H]1CC[C@H](C(=O)Nc2ccncc2)CC1 | 0.6 |
| Brc1c(Br)c(Br)c2[nH]nnc2c1Br [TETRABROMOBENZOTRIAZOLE] | 4.2 |
| CC(C)n1cnc2c(NCc3ccccc3)nc(NCCCO)nc21 | 0.2 |
| COc1cc2ncnc(Nc3ccc(NC(=O)c4ccccc4)cc3)c2cc1OC [ANILINOQUINAZOLINE1] | 0.3 |
| Cn1cnc2c(NCc3ccccc3)nc(NCCO)nc21 [OLOMOUCINE] | 0.1 |
| O=C1Cc2c([nH]c3ccc(Br)cc23)-c2ccccc2N1 [KENPAULLONE] | 1.2 |
| CCOc1cc(/C=C(\C#N)C(N)=O)cc(CSc2ccccc2)c1O | 0.1 |
| Nc1n[nH]c2nnc(-c3c(-c4ccccc4)nn4ccccc34)cc12 | 0.6 |
| O=C1Nc2cc(Br)ccc2/C1=C1/Nc2ccccc2/C1=N\O | 0.4 |

Source listed as ChEMBL document CHEMBL1145498.
